- target.of.assay: C-Raf kinase (Homo sapiens, UniProt P04049, Y340D/Y341D)
- Construct: C-Raf residues 306-end; Y340D, Y341D with N-; purchased Sigma
- Sequence (P04049 307-648 Y340D/Y341D): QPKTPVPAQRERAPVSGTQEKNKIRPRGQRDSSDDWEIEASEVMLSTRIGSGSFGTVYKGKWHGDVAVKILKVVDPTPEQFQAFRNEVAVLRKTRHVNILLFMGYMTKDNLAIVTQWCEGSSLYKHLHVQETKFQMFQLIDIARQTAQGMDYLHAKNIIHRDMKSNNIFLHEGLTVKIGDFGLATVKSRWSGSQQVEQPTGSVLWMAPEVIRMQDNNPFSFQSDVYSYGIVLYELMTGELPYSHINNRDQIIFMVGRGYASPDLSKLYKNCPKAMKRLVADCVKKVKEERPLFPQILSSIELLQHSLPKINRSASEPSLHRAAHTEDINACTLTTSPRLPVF
- assay.remarks: Biochemical assay for C-Raf (coupled pyruvate kinase/lactate dehydrogenase)
- condition.set: Table 5; read-out: CRAF
observed.property: IC50

Please look up its IC50: Cc1ccc(NC(=O)c2ccnc(C(F)(F)F)c2)cc1-c1cc(OCCO)nc(N2CCOCC2)c1 [Naporafenib, reference compound]
< 100 nM

----------
Assignment: determine reported IC50 for the given molecules.
- Tested on: HCT-116 cells
- assay.remarks: HCT-116 cell proliferation assay (resazurin)
- Assay type: cell-based
- condition.set: Homo sapiens; Table 2, inhibition of cell proliferation; read-out: HCT-116

Please look up its IC50: CNC(=O)c1cc(-c2cncc(-c3cc(NC(=O)c4cc(C5CC5)cnn4)ccc3C)c2)ncn1 [Example 24]
1000 to 10000 nM

Please look up its IC50: CNC(=O)c1cc(-c2cc(-c3cc(NC(=N)c4cc(C(F)(F)F)cnn4)ccc3C)ccn2)ccn1 [Example 20]
1000 to 10000 nM

Please look up its IC50: CNC(=O)c1cc(-c2cc(-c3cc(NC(=O)c4cc(C(C)(F)F)cnn4)ccc3C)cc(N[C@H](C)CO)n2)ccn1 [Example 38]
100 to 500 nM

Please look up its IC50: CNC(=O)c1cc(-c2cc(-c3cc(NC(=O)c4cc(C#N)cnn4)ccc3C)cc(OCCO)n2)ccn1 [Example 49]
500 to 1000 nM

Please look up its IC50: CNC(=O)c1cc(-c2cc(-c3cc(NC(=O)c4cc(C(F)(F)F)cnn4)ccc3C)cc(OCCO)n2)ccn1 [Example 35]
100 to 500 nM

Please look up its IC50: CNC(=O)c1cc(-c2cc(-c3cc(NC(=O)c4cc(C#N)cnn4)ccc3C)cc(NCCO)n2)ccn1 [Example 53]
100 to 500 nM

Please look up its IC50: CNC(=O)c1cc(-c2cc(-c3cc(NC(=O)c4cc(C5CC5)cnn4)ccc3C)nc(NCCO)n2)ccn1 [Example 8]
100 to 500 nM

----------
Assignment: determine reported IC50 for the given compounds.
- target.of.assay: Porcine Brain Tubulin (Sus scrofa, UniProt P02550+P02554)
- Construct: Porcine Brain Tubulin (T240); purchased Cytoskeleton, Inc T240; BK011P; host or cells: porcine brain
- assay.remarks: Biochemical tubulin polymerization assay
- condition.set: Table 4; read-out: Tubulin Biochem IC50

Request body: readout IC50, system Porcine Brain Tubulin (Sus scrofa, UniProt P02550+P02554), query CNC(=O)c1cc(-c2cc(-c3cc(NC(=O)c4ccnc(C(C)(C)F)c4)ccc3C)ccn2)ccn1 [reference compound] . Return the value.
> 100 µM

Request body: readout IC50, system Porcine Brain Tubulin (Sus scrofa, UniProt P02550+P02554), query CNC(=O)c1cc(-c2cc(-c3cc(NC(=O)c4ccnc(C(C)(C)C#N)c4)c(F)cc3C)ccn2)ccn1 [reference compound] . Return the value.
> 100 µM

Request body: readout IC50, system Porcine Brain Tubulin (Sus scrofa, UniProt P02550+P02554), query CNC(=O)c1cc(-c2cc(-c3cc(NC(=O)c4cnnc(C(F)(F)F)c4)ccc3C)ccn2)ccn1 [reference compound] . Return the value.
> 100 µM

Request body: readout IC50, system Porcine Brain Tubulin (Sus scrofa, UniProt P02550+P02554), query Cc1cc(-c2cc(NC(=O)c3ccnc(C(C)(C)F)c3)ccc2C)cc(-c2ccnc(C(N)=O)c2)n1 [reference compound] . Return the value.
> 100 µM
